Please respond with reported Ki for every item in the list.
# tested.on: Aldo-keto reductase family 1 member C3 (Homo sapiens)
# Sequence (P42330 whole entry): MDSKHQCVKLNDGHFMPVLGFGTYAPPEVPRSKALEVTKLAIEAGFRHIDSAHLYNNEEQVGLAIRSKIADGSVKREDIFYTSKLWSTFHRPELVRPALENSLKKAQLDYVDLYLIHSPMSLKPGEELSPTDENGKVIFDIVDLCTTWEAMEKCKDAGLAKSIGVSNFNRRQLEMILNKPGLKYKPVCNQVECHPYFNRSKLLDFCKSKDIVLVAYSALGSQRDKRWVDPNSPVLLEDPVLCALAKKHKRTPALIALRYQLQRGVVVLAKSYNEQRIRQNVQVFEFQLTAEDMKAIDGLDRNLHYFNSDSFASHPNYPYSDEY
# procedure.summary: Inhibition of human recombinant GST-tagged AKR1C3 expressed in Escherichia coli BL21
Write the figure, then the unit, nothing else.

IN: Return Ki measured with Aldo-keto reductase family 1 member C3 (Homo sapiens) given this compound: CCOC1CCC/C1=C\c1ccc(Cl)cc1 (centres undefined)
OUT: 20.5 µM

IN: Return Ki measured with Aldo-keto reductase family 1 member C3 (Homo sapiens) given this compound: COC1CCC/C1=C\c1ccc(Cl)cc1 (centres undefined)
OUT: 16.2 µM

IN: Return Ki measured with Aldo-keto reductase family 1 member C3 (Homo sapiens) given this compound: O=C(O)C1CCC(c2ccccc2)C1 (centres undefined)
OUT: 69.6 µM

IN: Return Ki measured with Aldo-keto reductase family 1 member C3 (Homo sapiens) given this compound: O=C1CCC/C1=C\c1ccc(Cl)cc1
OUT: 33.4 µM

---

# tested.on: Aldo-keto reductase family 1 member C3 (Homo sapiens) (UniProt P42330)
# procedure.summary: Inhibition of human recombinant GST-tagged AKR1C3 expressed in Escherichia coli BL21 at 100 uM
Activity calls are given as the source filed them. No cut-off for these calls is given here.
outcome.measure: inhibition

compound	tested.on	inhibition
Cc1ccc(S(=O)(=O)N[C@@H]2CCC[C@H]2C(=O)O)cc1 (relative stereo)	Aldo-keto reductase family 1 member C3 (Homo sapiens) (UniProt P42330)	inactive
O=C(O)C1CCC(c2ccccc2)C1 (configuration not stated)	Aldo-keto reductase family 1 member C3 (Homo sapiens) (UniProt P42330)	52.7%
O=C(O)C1(c2ccccc2)CCCC1	Aldo-keto reductase family 1 member C3 (Homo sapiens) (UniProt P42330)	5.8%
CCOC1CCC/C1=C\c1ccc(Cl)cc1 (configuration not stated)	Aldo-keto reductase family 1 member C3 (Homo sapiens) (UniProt P42330)	83.9%
COC1CCC/C1=C\c1ccc(Cl)cc1 (configuration not stated)	Aldo-keto reductase family 1 member C3 (Homo sapiens) (UniProt P42330)	87.4%

IN: Entry Cc1ccc(S(=O)(=O)N[C@@H]2CCC[C@H]2C(N)=O)cc1 (relative stereo) has what inhibition?
OUT: inactive

IN: Entry O[C@@H]1CCC[C@H]1Nc1ccccc1 (relative stereo) has what inhibition?
OUT: inactive
